Tested on: Pseudomonas aeruginosa
Test: Antitranslational activity in Pseudomonas aeruginosa 555 BAA-47 assessed as ribosomal inhibition by in vitro coupled transcription/translation assay
Format: functional
REPORTED PROPERTY: pIC50
In plain terms, pIC50 is the concentration in mol/L turned into minus its base-10 logarithm.

Query: Look at this molecule and give its reported pIC50. CN(C)[C@@H]1C(O)=C(C(N)=O)C(=O)[C@@]2(O)C(O)=C3C(=O)c4c(O)c5c(c(F)c4C[C@H]3C[C@@H]12)[C@@H]1[C@@H](CCN1C)CN5 (stereo in doubt; 10c)
Reply: 6.68

---

System: Staphylococcus aureus
Assay: Antibacterial activity against tet(K) tetracycline-resistant Staphylococcus aureus 158 assessed as bacterial growth inhibition by susceptibility testing assay
Assay type: functional
Conditions: Staphylococcus aureus, 158; read-out: MIC
REPORTED PROPERTY: log10(MIC) (log10 of the value in µg/mL)
Note: values are log10 of MIC expressed in µg/mL.

Query: Give Staphylococcus aureus log10(MIC) for CN(C)[C@@H]1C(O)=C(C(N)=O)C(=O)[C@@]2(O)C(O)=C3C(=O)c4c(O)c5c(c(F)c4C[C@H]3C[C@@H]12)[C@@H]1[C@@H](CCN1CCO)CN5
Reply: -0.60

Query: Give log10(MIC) (Staphylococcus aureus) of the following compound: CN(C)[C@@H]1C(O)=C(C(N)=O)C(=O)[C@@]2(O)C(O)=C3C(=O)c4c(O)c5c(c(F)c4C[C@H]3C[C@@H]12)C1NCCC1CN5 (mixture of isomers)
Reply: -0.30

Query: Item: CN(C)[C@@H]1C(O)=C(C(N)=O)C(=O)[C@@]2(O)C(O)=C3C(=O)c4c(O)c5c(c(F)c4C[C@H]3C[C@@H]12)[C@H]1N(C)CC[C@@]1(C)CN5 Test system: Staphylococcus aureus Read-out: log10(MIC) Value: ?
Reply: -0.90

Query: What is its log10(MIC) for Staphylococcus aureus? Entry: CN(C)[C@@H]1C(O)=C(C(N)=O)C(=O)[C@@]2(O)C(O)=C3C(=O)c4c(O)c5c(c(OC(F)(F)F)c4C[C@H]3C[C@@H]12)[C@@H]1[C@H](CN5)CC2COCCN21 (stereo not given in full)
Reply: -0.30

Query: Lookup: log10(MIC) / Staphylococcus aureus / CN(C)[C@@H]1C(O)=C(C(N)=O)C(=O)[C@@]2(O)C(O)=C3C(=O)c4c(O)c5c(c(F)c4C[C@H]3C[C@@H]12)[C@@H]1[C@@H](CCN1C)CN5 (stereo in doubt; 10b)
Reply: -0.90

Query: Request - read-out log10(MIC) | tested on Staphylococcus aureus | compound CN(C)[C@@H]1C(O)=C(C(N)=O)C(=O)[C@@]2(O)C(O)=C3C(=O)c4c(O)c5c(c(OC(F)(F)F)c4C[C@H]3C[C@@H]12)[C@@H]1[C@H](CN5)CC2CCCN21 (stereo not given in full)
Reply: -1.20

Query: Reported log10(MIC) for Staphylococcus aureus, given CN(C)[C@@H]1C(O)=C(C(N)=O)C(=O)[C@@]2(O)C(O)=C3C(=O)c4c(O)c5c(c(F)c4C[C@H]3C[C@@H]12)[C@H]1NCC[C@@]1(C)CN5 ?
Reply: 0.00

---

Test system: Staphylococcus aureus
Assay: Antibacterial activity against tet(K) tetracycline-resistant Staphylococcus aureus 158 assessed as bacterial growth inhibition by susceptibility testing assay
Assay type: functional
Details: Staphylococcus aureus, 158; read-out: MIC
For each record, write down the corresponding MIC.

Query: // query MIC value for entry CN(C)[C@@H]1C(O)=C(C(N)=O)C(=O)[C@@]2(O)C(O)=C3C(=O)c4c(O)c5c(c(OC(F)(F)F)c4C[C@H]3C[C@@H]12)[C@@H]1[C@H](CN5)CC2CCCCN21 (stereo partly drawn)
Reply: ≤ 0.0156 µg/mL

Query: Recorded MIC for CC1C[C@H]2CNc3c(O)c4c(c(OC(F)(F)F)c3[C@H]2N1C)C[C@H]1C[C@H]2[C@H](N(C)C)C(O)=C(C(N)=O)C(=O)[C@@]2(O)C(O)=C1C4=O (stereo partly drawn) , please?
Reply: ≤ 0.0156 µg/mL

Query: For the compound shown here, CN(C)[C@@H]1C(O)=C(C(N)=O)C(=O)[C@@]2(O)C(O)=C3C(=O)c4c(O)c5c(c(OC(F)(F)F)c4C[C@H]3C[C@@H]12)[C@@H]1[C@@H](CCN1C)CN5 , give the reported MIC.
Reply: ≤ 0.0156 µg/mL
